Dear all, I have gathered published pIC50 values for PDE9 (Homo sapiens (Human), UniProt O76083); the list follows.
pIC50: −log10 of the molar value.
Rule: pIC50 under 8 gives f, otherwise t.

{"STRUCTURE_STRING": "CC(C)(C)c1ccc2oc(CSc3nc4c(cnn4C4CCOCC4)c(=O)[nH]3)nc2c1", "CLASS_NAME": "f"}
{"STRUCTURE_STRING": "O=C(CSc1nc2c(cnn2C2CCC(F)(F)CC2)c(=O)[nH]1)Nc1nnc(Cl)s1", "CLASS_NAME": "t"}
{"STRUCTURE_STRING": "CCOCCCCN1CCN(C(=O)c2cc3c(cc2C)[nH]c(=O)c2cnn([C@H]4CCOC4)c23)CC1", "CLASS_NAME": "f"}
{"STRUCTURE_STRING": "O=c1[nH]c(SCc2nc3cc(C(F)(F)F)ccc3o2)nc2c1cnn2C1CCC(F)(F)CC1", "CLASS_NAME": "f"}
{"STRUCTURE_STRING": "Cc1nnc(NC(=O)CSc2nc3c(cnn3-c3ccccc3)c(=O)[nH]2)s1", "CLASS_NAME": "f"}
{"STRUCTURE_STRING": "Cc1cc2[nH]c(=O)c3cnn(C4CCOCC4)c3c2cc1C(=O)N1CCC(O)(C(F)(F)F)CC1", "CLASS_NAME": "f"}
{"STRUCTURE_STRING": "COC1(C)CCN(c2c(C#N)c(=O)[nH]c3ccc(C)nc23)CC1", "CLASS_NAME": "f"}
{"STRUCTURE_STRING": "COCCCCN(C)[C@H]1CCN(C(=O)c2cc3c(cc2C)[nH]c(=O)c2cnn(C4CCOCC4)c23)C1", "CLASS_NAME": "t"}
{"STRUCTURE_STRING": "CCOCC1CN(C(=O)c2cc3c(cc2C)[nH]c(=O)c2cnn(C4CCOCC4)c23)C1", "CLASS_NAME": "t"}
{"STRUCTURE_STRING": "Cc1cc2[nH]c(=O)c3cnn(C4CCOCC4)c3c2cc1C(=O)N1CCC(COC2CC2)CC1", "CLASS_NAME": "t"}

====

Dear all, I have gathered published pIC50 values for PDE9 (Homo sapiens (Human), UniProt O76083); the list follows.
pIC50: −log10 of the molar value.
Rule: pIC50 under 8 gives -1, otherwise 1.

{"COMPOUND": "CCS(=O)(=O)N1CCC(c2ncc3c(=O)[nH]c([C@@H]4CN(Cc5ncccn5)C[C@H]4C)nn23)CC1 (single isomer, unassigned)", "CLASS_NAME": -1}
{"COMPOUND": "COCCCCN1CCN(C(=O)c2cc3c(cc2C)[nH]c(=O)c2cnn(CC4CCOCC4)c23)CC1", "CLASS_NAME": -1}
{"COMPOUND": "O=C(CSc1nc2c(cnn2-c2ccc(F)cc2)c(=O)[nH]1)Nc1nnc(Br)s1", "CLASS_NAME": -1}
{"COMPOUND": "O=C(CSc1nc2c(cnn2C2CCCCC2)c(=O)[nH]1)Nc1nnc(Br)s1", "CLASS_NAME": 1}
{"COMPOUND": "Cc1cc2[nH]c(=O)c3cnn(CC4CCC4)c3c2cc1C(=O)N1CCN(CCC(F)(F)F)[C@@H](C)C1", "CLASS_NAME": 1}
